Every entry's value here was drawn from patent US11673890B2.

I'd be grateful if you could share measured IC50 for these entries.
Target: recombinant human ACC1 (rhACC1) (Homo sapiens, UniProt Q13085, DEL44-44)
Construct: infected with recombinant baculovirus containing full length human ACC1 cDNA; made in house; host or cells: SF9 insect cells (baculovirus)
Assay: recombinant hACC1 Transcreener assay (ADP detection FP)
Type: biochemical
Conditions: recombinant hACC1 Transcreener assay, 50 μM ATP, minimum of n=3; read-out: hACC1
Method: For example direct inhibition of ACC activity, for the compound of Formula (1) was determined using preparations of recombinant human ACC1 (rhACC1) and recombinant human ACC2 (rhACC2). [1] Preparation of rhACC1. […]
One number for each entry, in nM.

Take a look at these entries with their results.
molecule: CC(C)n1ncc2c1C(=O)CC1(CCN(C(=O)c3cc4c(-c5ccc(C(=O)O)cc5)cccc4[nH]3)CC1)C2 [Example 16]
IC50, nM: 9.75
//
molecule: COc1cc(C(=O)N2CCC3(CC2)CC(=O)c2c(cnn2C(C)(C)C)C3)cc(-c2cccc(C(=O)O)c2)n1 [Example 11]
IC50, nM: 180

Each molecule below has a reported value. Please supply its IC50.
1. CC(C)n1ncc2c1C(=O)CC1(CCN(C(=O)c3cc4c(-c5cccc(C(=O)O)c5)ccnc4[nH]3)CC1)C2 [Example 28]
2. CC(C)(C)n1ncc2c1C(=O)CC1(CCN(C(=O)c3ccc(OCc4ccc(C(=O)O)cc4)cc3)CC1)C2 [Example 1]
3. CC(C)Nc1nc(-c2ccc(C(=O)O)cc2)ccc1C(=O)N1CCC2(CC1)CC(=O)c1c(cnn1C(C)C)C2 [Example 25]
4. CC(C)(C)n1ncc2c1C(=O)CC1(CCN(C(=O)c3ccc(-c4cccc(C(=O)O)c4)cc3)CC1)C2 [Example 6]
5. CCNc1nc(-c2cccc(C(=O)O)c2)ccc1C(=O)N1CCC2(CC1)CC(=O)c1c(cnn1C(C)(C)C)C2 [Example 19]

**Result**
1. 6.7
2. 176
3. 600
4. 260
5. 837

----------
I'd be grateful if you could share measured IC50 for these entries.
Target: recombinant human ACC1 (rhACC1) (Homo sapiens, UniProt Q13085, DEL44-44)
Construct: infected with recombinant baculovirus containing full length human ACC1 cDNA; made in house; host or cells: SF9 insect cells (baculovirus)
Assay: recombinant hACC1 Transcreener assay (ADP detection FP)
Format: biochemical
Conditions: recombinant hACC1 Transcreener assay, 50 μM ATP, minimum of n=3; read-out: hACC1
Method: For example direct inhibition of ACC activity, for the compound of Formula (1) was determined using preparations of recombinant human ACC1 (rhACC1) and recombinant human ACC2 (rhACC2). [1] Preparation of rhACC1. […]
The answer should read as a number with its unit following.

Take a look at these entries with their results.
smi: CC(C)n1ncc2c1C(=O)CC1(CCN(C(=O)c3cc4c(-c5ccc(C(=O)O)cc5)nccc4[nH]3)CC1)C2
IC50: 16.1 nM
//
smi: CC(C)n1ncc2c1C(=O)CC1(CCN(C(=O)c3cc(-c4cccc(C(=O)O)c4)c4cc[nH]c4c3)CC1)C2
IC50: 29.1 nM
//
smi: CC(C)n1ncc2c1C(=O)CC1(CCN(C(=O)c3cc4c(-c5ccc(C(=O)O)cc5)ncnc4[nH]3)CC1)C2
IC50: 55.8 nM

Proceed to the following item.
**Query** Any idea what its IC50 is? The compound is CC(C)n1ncc2c1C(=O)CC1(CCN(C(=O)c3nc4cc(-c5cccc(C(=O)O)c5)ccc4[nH]3)CC1)C2
**Result** 32.5 nM

----------
Biological target: recombinant human ACC2 (rhACC2) (Homo sapiens, UniProt O00763, V2141I)
Construct: a full length Cytomax clone of ACC2 was purchased from Cambridge Bioscience Limited
Sequence (O00763 whole entry V2141I): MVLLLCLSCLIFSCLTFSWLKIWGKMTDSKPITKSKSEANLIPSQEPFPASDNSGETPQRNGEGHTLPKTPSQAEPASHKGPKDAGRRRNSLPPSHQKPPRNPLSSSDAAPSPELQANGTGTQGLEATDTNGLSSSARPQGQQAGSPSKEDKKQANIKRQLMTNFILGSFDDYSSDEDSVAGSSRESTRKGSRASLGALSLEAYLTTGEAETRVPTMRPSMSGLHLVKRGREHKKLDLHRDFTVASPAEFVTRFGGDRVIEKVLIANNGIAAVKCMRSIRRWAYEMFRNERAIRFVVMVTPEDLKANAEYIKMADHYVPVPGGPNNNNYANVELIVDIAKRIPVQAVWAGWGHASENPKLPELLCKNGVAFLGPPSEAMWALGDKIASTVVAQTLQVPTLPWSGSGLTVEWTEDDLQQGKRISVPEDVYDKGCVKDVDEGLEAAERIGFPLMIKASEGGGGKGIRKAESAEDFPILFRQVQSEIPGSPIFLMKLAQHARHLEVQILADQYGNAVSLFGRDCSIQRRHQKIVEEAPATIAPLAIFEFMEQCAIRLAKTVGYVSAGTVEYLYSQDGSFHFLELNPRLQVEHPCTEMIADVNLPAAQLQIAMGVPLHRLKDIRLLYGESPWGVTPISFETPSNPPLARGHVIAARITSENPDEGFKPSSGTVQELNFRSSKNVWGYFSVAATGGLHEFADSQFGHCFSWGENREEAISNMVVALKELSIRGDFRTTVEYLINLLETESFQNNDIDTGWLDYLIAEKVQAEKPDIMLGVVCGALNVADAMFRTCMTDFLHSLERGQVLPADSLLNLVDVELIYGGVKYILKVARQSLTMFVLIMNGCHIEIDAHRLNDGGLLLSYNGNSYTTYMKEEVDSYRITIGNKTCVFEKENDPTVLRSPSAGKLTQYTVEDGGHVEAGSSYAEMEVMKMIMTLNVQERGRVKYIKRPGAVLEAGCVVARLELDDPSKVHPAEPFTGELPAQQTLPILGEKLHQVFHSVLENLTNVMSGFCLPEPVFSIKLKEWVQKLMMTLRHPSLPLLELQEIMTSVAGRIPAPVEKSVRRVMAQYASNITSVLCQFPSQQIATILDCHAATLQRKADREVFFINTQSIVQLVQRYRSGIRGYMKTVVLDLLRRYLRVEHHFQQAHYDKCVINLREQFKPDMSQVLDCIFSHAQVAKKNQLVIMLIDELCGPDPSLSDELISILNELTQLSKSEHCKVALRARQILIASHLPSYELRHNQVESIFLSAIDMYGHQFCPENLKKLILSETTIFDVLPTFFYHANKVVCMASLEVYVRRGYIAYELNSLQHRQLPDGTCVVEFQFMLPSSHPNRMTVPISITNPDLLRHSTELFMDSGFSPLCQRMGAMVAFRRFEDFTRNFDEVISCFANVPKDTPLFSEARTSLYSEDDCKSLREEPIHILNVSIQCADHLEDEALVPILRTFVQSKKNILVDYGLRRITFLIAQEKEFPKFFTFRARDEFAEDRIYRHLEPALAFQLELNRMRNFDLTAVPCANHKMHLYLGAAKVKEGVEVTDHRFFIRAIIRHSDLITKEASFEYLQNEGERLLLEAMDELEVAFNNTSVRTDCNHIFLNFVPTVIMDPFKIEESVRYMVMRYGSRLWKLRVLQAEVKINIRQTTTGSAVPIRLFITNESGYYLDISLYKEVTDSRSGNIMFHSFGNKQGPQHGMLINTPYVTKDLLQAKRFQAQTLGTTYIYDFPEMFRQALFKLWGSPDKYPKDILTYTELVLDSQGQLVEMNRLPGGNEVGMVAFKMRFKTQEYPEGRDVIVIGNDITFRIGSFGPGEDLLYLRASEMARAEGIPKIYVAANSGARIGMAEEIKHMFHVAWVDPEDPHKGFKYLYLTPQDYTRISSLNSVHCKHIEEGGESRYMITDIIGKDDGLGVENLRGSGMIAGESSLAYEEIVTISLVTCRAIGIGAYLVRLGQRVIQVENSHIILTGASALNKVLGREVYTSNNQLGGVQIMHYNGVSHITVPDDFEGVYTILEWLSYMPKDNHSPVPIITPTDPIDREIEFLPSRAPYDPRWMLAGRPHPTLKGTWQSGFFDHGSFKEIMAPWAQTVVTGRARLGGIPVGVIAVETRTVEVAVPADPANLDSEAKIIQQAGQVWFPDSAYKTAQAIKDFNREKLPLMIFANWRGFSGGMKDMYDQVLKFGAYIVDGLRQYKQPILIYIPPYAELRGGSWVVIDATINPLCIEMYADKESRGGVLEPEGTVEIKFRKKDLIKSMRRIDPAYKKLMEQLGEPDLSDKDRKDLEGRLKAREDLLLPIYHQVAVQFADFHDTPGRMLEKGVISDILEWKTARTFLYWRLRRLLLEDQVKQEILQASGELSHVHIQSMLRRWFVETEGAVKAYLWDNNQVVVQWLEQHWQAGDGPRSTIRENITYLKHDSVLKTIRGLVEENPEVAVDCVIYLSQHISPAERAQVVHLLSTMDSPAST
Test: recombinant hACC2 Transcreener assay (ADP detection FP)
Settings: 50 μM ATP, minimum of n=3
I'd be grateful if you could share measured IC50 for these entries.
Answers are plain numbers, in nM.

Take a look at these entries with their results.
compound: CC(C)n1ncc2c1C(=O)CC1(CCN(C(=O)c3ccc(-c4ccc(C(=O)O)cc4)nc3NCC(F)(F)F)CC1)C2 [Example 42]
result_type: IC50
unit_info: nM
value_measured: 30.4

compound: CC(C)Nc1nc(-c2ccc(C(=O)O)cc2)ccc1C(=O)N1CCC2(CC1)CC(=O)c1c(cnn1C(C)(C)C)C2 [Example 24]
result_type: IC50
unit_info: nM
value_measured: 557

compound: CC(C)n1ncc2c1C(=O)CC1(CCN(C(=O)c3cc4c(-c5cccc(C(=O)O)c5)nccc4[nH]3)CC1)C2 [Example 35]
result_type: IC50
unit_info: nM
value_measured: 12.5

Each compound below has a reported value. Please supply its IC50.
1. CCNc1nc(-c2cccc(C(=O)O)c2)ccc1C(=O)N1CCC2(CC1)CC(=O)c1c(cnn1C(C)(C)C)C2 [Example 19]
2. COc1cc(C(=O)N2CCC3(CC2)CC(=O)c2c(cnn2C(C)C)C3)cc(-c2cccc(C(=O)O)c2)n1 [Example 2]
3. CC(C)n1ncc2c1C(=O)CC1(CCN(C(=O)c3cc4ccc(-c5cccc(C(=O)O)c5)cc4[nH]3)CC1)C2 [Example 41]
4. CC(C)n1ncc2c1C(=O)CC1(CCN(C(=O)c3cc(-c4ccc(C(=O)O)cc4)c4cc[nH]c4c3)CC1)C2 [Example 37]

**Result**
1. 487
2. 84.1
3. 15.2
4. 3.2

----------
I'd be grateful if you could share measured log10 IC50 for these entries.
Target: recombinant human ACC2 (rhACC2) (Homo sapiens, UniProt O00763, V2141I)
Construct: a full length Cytomax clone of ACC2 was purchased from Cambridge Bioscience Limited
Test: recombinant hACC2 Transcreener assay (ADP detection FP)
Details: 50 μM ATP, minimum of n=3
Lab note - IC50 converted to log10 from values in nM.

smi: CC(C)Nc1nc(-c2cccc(C(=O)O)c2)ccc1C(=O)N1CCC2(CC1)CC(=O)c1c(cnn1C(C)C)C2
value_measured: 2.62

Each compound below has a reported value. Please supply its log10 IC50.
1. CC(C)n1ncc2c1C(=O)CC1(CCN(C(=O)c3cc4c(-c5cccc(C(=O)O)c5)cccc4[nH]3)CC1)C2
2. CC(C)n1ncc2c1C(=O)CC1(CCN(C(=O)c3cc4c(-c5ccc(C(=O)O)cc5)nccc4[nH]3)CC1)C2
3. CC(C)n1ncc2c1C(=O)CC1(CCN(C(=O)c3cc4c(-c5cccc(C(=O)O)c5)ncnc4[nH]3)CC1)C2
4. CC(C)(C)n1ncc2c1C(=O)CC1(CCN(C(=O)c3ccc(OCc4ccc(C(=O)O)cc4)cc3)CC1)C2
5. CC(C)(C)n1ncc2c1C(=O)CC1(CCN(C(=O)c3ccc(-c4cccc(C(=O)O)c4)cc3)CC1)C2

**Result**
0.90
1.27
1.47
2.26
2.06

----------
Target: recombinant human ACC2 (rhACC2) (Homo sapiens, UniProt O00763, V2141I)
Construct: a full length Cytomax clone of ACC2 was purchased from Cambridge Bioscience Limited
Experiment: recombinant hACC2 Transcreener assay (ADP detection FP)
Conditions: 50 μM ATP, minimum of n=3
I'd be grateful if you could share measured pIC50 for these entries.
Answers are plain numbers, as −log10 of the molar value.

Take a look at these entries with their results.
smi: CC(C)n1ncc2c1C(=O)CC1(CCN(C(=O)c3nc4cc(-c5ccc(C(=O)O)cc5)ccc4[nH]3)CC1)C2
pIC50: 7.80
--
smi: CC(C)n1ncc2c1C(=O)CC1(CCN(C(=O)c3ccc(-c4cccc(C(=O)O)c4)cc3)CC1)C2
pIC50: 7.13
--
smi: CC(C)n1ncc2c1C(=O)CC1(CCN(C(=O)c3cc(C(=O)O)cc(-c4ncco4)c3)CC1)C2
pIC50: 6.16
--
smi: CC(C)(C)n1ncc2c1C(=O)CC1(CCN(C(=O)c3ccc(-c4cccc(-c5nnn[nH]5)c4)cc3)CC1)C2
pIC50: 7.61
--
smi: CC(C)n1ncc2c1C(=O)CC1(CCN(C(=O)c3cc(-c4ccc(C(=O)O)cc4)c4cn[nH]c4c3)CC1)C2
pIC50: 8.13
--
smi: COc1cc(C(=O)N2CCC3(CC2)CC(=O)c2c(cnn2C(C)C)C3)cc(-c2ccc(C(=O)O)cc2)n1
pIC50: 7.53

Proceed to the following item.
**Query** Any idea what its pIC50 is? The compound is CC(C)n1ncc2c1C(=O)CC1(CCN(C(=O)c3cc4c(-c5cccc(C(=O)O)c5)cncc4[nH]3)CC1)C2
**Result** 8.21

----------
Biological target: recombinant human ACC2 (rhACC2) (Homo sapiens, UniProt O00763, V2141I)
Construct: a full length Cytomax clone of ACC2 was purchased from Cambridge Bioscience Limited
Test: recombinant hACC2 Transcreener assay (ADP detection FP)
Details: 50 μM ATP, minimum of n=3
I'd be grateful if you could share measured IC50 for these entries.
One number for each entry, in nM.

smi: CC(C)n1ncc2c1C(=O)CC1(CCN(C(=O)c3cc4c(-c5ccc(C(=O)O)cc5)ncnc4[nH]3)CC1)C2
tested_target: recombinant human ACC2 (rhACC2) (Homo sapiens, UniProt O00763, V2141I)
result_type: IC50
value_measured: 42.6
--
smi: CC(C)n1ncc2c1C(=O)CC1(CCN(C(=O)c3cc(-c4cccc(C(=O)O)c4)[nH]c(=O)c3)CC1)C2
tested_target: recombinant human ACC2 (rhACC2) (Homo sapiens, UniProt O00763, V2141I)
result_type: IC50
value_measured: 2260
--
smi: COc1cc(C(=O)N2CCC3(CC2)CC(=O)c2c(cnn2C(C)(C)C)C3)cc(-c2ccc(C(=O)O)cc2)n1
tested_target: recombinant human ACC2 (rhACC2) (Homo sapiens, UniProt O00763, V2141I)
result_type: IC50
value_measured: 35.5

Proceed to the following item.
**Query** Any idea what its IC50 is? The compound is CC(C)n1ncc2c1C(=O)CC1(CCN(C(=O)c3cc(-c4cccc(C(=O)O)c4)nc(N(C)C)c3)CC1)C2
**Result** 12.5
